Readings of half-life at 1 µM for the listed molecules
experiment: in vitro; type: in vitro ADME; conditions: rat intestinal microsomes, NADPH, 37° C.
property.name: half-life at 1 µM (min)

smiles_string=CC(C)(C)OC(=O)c1ccc2c(c1)nc(OCCOCCCCNCc1cc(F)c(OC(F)(F)F)c(F)c1)c1ccncc12 quantitative_readout=29.3
smiles_string=CCC(=O)OCOC(=O)c1ccc2c(c1)nc(OCCOCCCCNCc1cc(F)c(OC(F)(F)F)c(F)c1)c1ccncc12 quantitative_readout=25.4
smiles_string=CCOC(=O)c1ccc2c(c1)nc(OCCOCCCCNCc1cc(F)c(OC(F)(F)F)c(F)c1)c1ccncc12 quantitative_readout=61.4
smiles_string=CC(C)OC(=O)OCOC(=O)c1ccc2c(c1)nc(OCCOCCCCNCc1cc(F)c(OC(F)(F)F)c(F)c1)c1ccncc12 quantitative_readout=1.4
smiles_string=CC(=O)OCOC(=O)c1ccc2c(c1)nc(OCCOCCCCNCc1cc(F)c(OC(F)(F)F)c(F)c1)c1ccncc12 quantitative_readout=37.4
smiles_string=CCOC(=O)OCOC(=O)c1ccc2c(c1)nc(OCCOCCCCNCc1cc(F)c(OC(F)(F)F)c(F)c1)c1ccncc12 quantitative_readout=18.3

###

Test: Stability in aqueous media (FaSSIF, SGF, PBS)
Assay type: physicochemical
Settings: FaSSIF pH 6.5, 37° C., 1 h
Method: 10 μL of a 10 mM stock solution of the Examples were dissolved in 490 μL DMSO to afford […] working solution SGF (pH 1.2): Dissolve 0.04 g NaCl and 0.064 g pepsin in 0.14 mL HCl and add sufficient water to 20 mL volume. The pH of the test solution was 1.20±0.05. 0.056% (w/v) lecithin, 0.161% (w/v) sodium taurocholate, 0.39% (w/v) monobasic potassium phosphate, 0.77% (w/v) potassium chloride, deionized H2O. […] Samples were analysed by Mass Spectrometry QTRAP 6500+.
Readings of FaSSIF (pH 6.5) % remaining 1 h for the listed compounds
property.name: FaSSIF (pH 6.5) % remaining 1 h (%)

smiles_string=COC(=O)c1ccc2c(c1)nc(OCCOCCCCNCc1cc(F)c(OC(F)(F)F)c(F)c1)c1ccncc12 u=% quantitative_readout=90.0
smiles_string=CC(C)(C)OC(=O)c1ccc2c(c1)nc(OCCOCCCCNCc1cc(F)c(OC(F)(F)F)c(F)c1)c1ccncc12 u=% quantitative_readout=92.1
smiles_string=CC(C)(C)OC(=O)OCOC(=O)c1ccc2c(c1)nc(OCCOCCCCNCc1cc(F)c(OC(F)(F)F)c(F)c1)c1ccncc12 u=% quantitative_readout=99.0
smiles_string=Cc1oc(=O)oc1COC(=O)c1ccc2c(c1)nc(OCCOCCCCNCc1cc(F)c(OC(F)(F)F)c(F)c1)c1ccncc12 u=% quantitative_readout=101.0
smiles_string=O=C(OCOC(=O)c1ccc2c(c1)nc(OCCOCCCCNCc1cc(F)c(OC(F)(F)F)c(F)c1)c1ccncc12)OC1CCOCC1 u=% quantitative_readout=95.5
smiles_string=CN(C)CCOC(=O)c1ccc2c(c1)nc(OCCOCCCCNCc1cc(F)c(OC(F)(F)F)c(F)c1)c1ccncc12 u=% quantitative_readout=102.2
smiles_string=CC(C)OC(=O)c1ccc2c(c1)nc(OCCOCCCCNCc1cc(F)c(OC(F)(F)F)c(F)c1)c1ccncc12 u=% quantitative_readout=95.4
smiles_string=CC(=O)OCOC(=O)c1ccc2c(c1)nc(OCCOCCCCNCc1cc(F)c(OC(F)(F)F)c(F)c1)c1ccncc12 u=% quantitative_readout=101.7

###

experiment: Comparative solubility data for Reference Example 1 (thermodynamic and kinetic); format: physicochemical; conditions: aqueous buffer, thermodynamic from solid; thermodynamic, phosphate buffer, initial pH 7.4
property.name: solubility

compound="O=C(O)c1ccc2c(c1)nc(OCCOCCCCNCc1cc(F)c(OC(F)(F)F)c(F)c1)c1ccncc12 [Reference Example 1]" property_name=solubility result="< 0.9 µg/mL"

###

Format: in vitro ADME
Details: rat plasma, 37° C., 0 min
Experimental: 5 μL of a 10 mM stock solution of the Examples were dissolved in 495 μL DMSO to afford 500 μL working solution Assay procedure: 98 μL plasma was added to each well of a 96-well reaction plate, using one plate per timepoint (Blank, TO, T10, T30, T60, and T120). 2 μL of working solution was added to each well of the reaction plates except Blank. Each plate was incubated at 37° C. for the indicated timepoint (0, 10, 30, 60, 120 minutes). […] Formation of parent was also monitored as a metabolite.
property.name: Example concentration (nM) 0 min

smiles_string=CCOC(=O)c1ccc2c(c1)nc(OCCOCCCCNCc1cc(F)c(OC(F)(F)F)c(F)c1)c1ccncc12 quantitative_readout=1687.0
smiles_string=O=C(OCOC(=O)c1ccc2c(c1)nc(OCCOCCCCNCc1cc(F)c(OC(F)(F)F)c(F)c1)c1ccncc12)OC1CCOCC1 quantitative_readout=1845.9
smiles_string=CN(C)CCOC(=O)c1ccc2c(c1)nc(OCCOCCCCNCc1cc(F)c(OC(F)(F)F)c(F)c1)c1ccncc12 quantitative_readout=1830.9
smiles_string=CC(=O)OCOC(=O)c1ccc2c(c1)nc(OCCOCCCCNCc1cc(F)c(OC(F)(F)F)c(F)c1)c1ccncc12 quantitative_readout=2023.5
smiles_string=CC(C)(C)C(=O)OCOC(=O)c1ccc2c(c1)nc(OCCOCCCCNCc1cc(F)c(OC(F)(F)F)c(F)c1)c1ccncc12 quantitative_readout=1779.1
smiles_string=CCOC(=O)OCOC(=O)c1ccc2c(c1)nc(OCCOCCCCNCc1cc(F)c(OC(F)(F)F)c(F)c1)c1ccncc12 quantitative_readout=1601.0
smiles_string=Cc1oc(=O)oc1COC(=O)c1ccc2c(c1)nc(OCCOCCCCNCc1cc(F)c(OC(F)(F)F)c(F)c1)c1ccncc12 quantitative_readout=1887.9

###

assay: Stability in aqueous media (FaSSIF, SGF, PBS); type: physicochemical; conditions: SGF pH 1.2, 37° C., 6 h
Response field label: string, one of t (SGF (pH 1.2) % remaining 6 h strictly below 60%) or f.

smiles_string=CC(C)C(=O)OCOC(=O)c1ccc2c(c1)nc(OCCOCCCCNCc1cc(F)c(OC(F)(F)F)c(F)c1)c1ccncc12 answer_label=t
smiles_string=CC(C)(C)OC(=O)OCOC(=O)c1ccc2c(c1)nc(OCCOCCCCNCc1cc(F)c(OC(F)(F)F)c(F)c1)c1ccncc12 answer_label=t
smiles_string=CC(C)OC(=O)c1ccc2c(c1)nc(OCCOCCCCNCc1cc(F)c(OC(F)(F)F)c(F)c1)c1ccncc12 answer_label=t
smiles_string=CN(C)CCOC(=O)c1ccc2c(c1)nc(OCCOCCCCNCc1cc(F)c(OC(F)(F)F)c(F)c1)c1ccncc12 answer_label=f
smiles_string=Cc1oc(=O)oc1COC(=O)c1ccc2c(c1)nc(OCCOCCCCNCc1cc(F)c(OC(F)(F)F)c(F)c1)c1ccncc12 answer_label=f
smiles_string=O=C(OCOC(=O)c1ccc2c(c1)nc(OCCOCCCCNCc1cc(F)c(OC(F)(F)F)c(F)c1)c1ccncc12)OC1CCOCC1 answer_label=f
smiles_string=CC(=O)OCOC(=O)c1ccc2c(c1)nc(OCCOCCCCNCc1cc(F)c(OC(F)(F)F)c(F)c1)c1ccncc12 answer_label=t
smiles_string=CC(C)OC(=O)OCOC(=O)c1ccc2c(c1)nc(OCCOCCCCNCc1cc(F)c(OC(F)(F)F)c(F)c1)c1ccncc12 answer_label=f
smiles_string=CCC(=O)OCOC(=O)c1ccc2c(c1)nc(OCCOCCCCNCc1cc(F)c(OC(F)(F)F)c(F)c1)c1ccncc12 answer_label=t
smiles_string=CC(C)(C)OC(=O)c1ccc2c(c1)nc(OCCOCCCCNCc1cc(F)c(OC(F)(F)F)c(F)c1)c1ccncc12 answer_label=t
smiles_string=COC(=O)OCOC(=O)c1ccc2c(c1)nc(OCCOCCCCNCc1cc(F)c(OC(F)(F)F)c(F)c1)c1ccncc12 answer_label=f
smiles_string=COC(=O)c1ccc2c(c1)nc(OCCOCCCCNCc1cc(F)c(OC(F)(F)F)c(F)c1)c1ccncc12 answer_label=f
smiles_string=CCOC(=O)OCOC(=O)c1ccc2c(c1)nc(OCCOCCCCNCc1cc(F)c(OC(F)(F)F)c(F)c1)c1ccncc12 answer_label=f
smiles_string=CCOC(=O)c1ccc2c(c1)nc(OCCOCCCCNCc1cc(F)c(OC(F)(F)F)c(F)c1)c1ccncc12 answer_label=f

###

format: in vitro ADME; settings: rat plasma, 37° C., 10 min
property.name: Example concentration (nM) 10 min

smiles_string=Cc1oc(=O)oc1COC(=O)c1ccc2c(c1)nc(OCCOCCCCNCc1cc(F)c(OC(F)(F)F)c(F)c1)c1ccncc12 property_name="Example concentration (nM) 10 min" quantitative_readout=1.2
smiles_string=CCOC(=O)OCOC(=O)c1ccc2c(c1)nc(OCCOCCCCNCc1cc(F)c(OC(F)(F)F)c(F)c1)c1ccncc12 property_name="Example concentration (nM) 10 min" quantitative_readout=1.6
smiles_string=CC(C)(C)C(=O)OCOC(=O)c1ccc2c(c1)nc(OCCOCCCCNCc1cc(F)c(OC(F)(F)F)c(F)c1)c1ccncc12 property_name="Example concentration (nM) 10 min" quantitative_readout=5.0
smiles_string=CCOC(=O)c1ccc2c(c1)nc(OCCOCCCCNCc1cc(F)c(OC(F)(F)F)c(F)c1)c1ccncc12 property_name="Example concentration (nM) 10 min" quantitative_readout=3.1
smiles_string=CC(=O)OCOC(=O)c1ccc2c(c1)nc(OCCOCCCCNCc1cc(F)c(OC(F)(F)F)c(F)c1)c1ccncc12 property_name="Example concentration (nM) 10 min" quantitative_readout=2.1
smiles_string=O=C(OCOC(=O)c1ccc2c(c1)nc(OCCOCCCCNCc1cc(F)c(OC(F)(F)F)c(F)c1)c1ccncc12)OC1CCOCC1 property_name="Example concentration (nM) 10 min" quantitative_readout=2.7
smiles_string=CN(C)CCOC(=O)c1ccc2c(c1)nc(OCCOCCCCNCc1cc(F)c(OC(F)(F)F)c(F)c1)c1ccncc12 property_name="Example concentration (nM) 10 min" quantitative_readout=2.7
